Overview of recorded Thymus Inhibition for various compounds
test system: thymus weight in rats; assay: Thymus inhibition testing (subcutaneous administration); type: in vivo, rat; settings: Table VII, 10 mg/kg/day s.c., three days

[
  {
    "compound": "CCOC(=O)O[C@]1(C(=O)OCCl)[C@H](C)C[C@H]2[C@@H]3CCC4=CC(=O)C=C[C@]4(C)[C@@]3(F)[C@@H](O)C[C@@]21C",
    "Thymus Inhibition": "14.0%"
  },
  {
    "compound": "CC(C)OC(=O)O[C@]1(C(=O)OCCl)CC[C@H]2[C@@H]3CCC4=CC(=O)CC[C@]4(C)[C@H]3[C@@H](O)C[C@@]21C",
    "Thymus Inhibition": "18.0%"
  },
  {
    "compound": "CC(C)OC(=O)O[C@]1(C(=O)OCCl)CC[C@H]2[C@@H]3CCC4=CC(=O)C=C[C@]4(C)[C@H]3[C@@H](O)C[C@@]21C",
    "Thymus Inhibition": "33.8%"
  },
  {
    "compound": "CCCC(=O)O[C@]1(C(=O)CO)CC[C@H]2[C@@H]3CCC4=CC(=O)CC[C@]4(C)[C@H]3[C@@H](O)C[C@@]21C [Hydrocortisone 17-butyrate, reference compound]",
    "Thymus Inhibition": "86.2%"
  }
]

---

tested on: granulation tissue formation caused by implantation of cotton pellets; experiment: Granuloma formation test (local cotton pellet granuloma assay); format: in vivo, rat; settings: Table IV, 300 μg/pellet

[
  {
    "molecule": "CC(C)OC(=O)O[C@]1(C(=O)OCCl)CC[C@H]2[C@@H]3CCC4=CC(=O)C=C[C@]4(C)[C@H]3[C@@H](O)C[C@@]21C",
    "Thymus wt. (mg)": 525
  },
  {
    "molecule": "CCCCC(=O)O[C@]1(C(=O)CO)[C@@H](C)C[C@H]2[C@@H]3CCC4=CC(=O)C=C[C@]4(C)[C@@]3(F)[C@@H](O)C[C@@]21C [Betamethasone 17-valerate, reference compound]",
    "Thymus wt. (mg)": 264
  },
  {
    "molecule": "CCCC(=O)O[C@]1(C(=O)CO)CC[C@H]2[C@@H]3CCC4=CC(=O)CC[C@]4(C)[C@H]3[C@@H](O)C[C@@]21C [Hydrocortisone 17-butyrate, reference compound]",
    "Thymus wt. (mg)": 353
  },
  {
    "molecule": "CC(C)OC(=O)O[C@]1(C(=O)OCCl)CC[C@H]2[C@@H]3CCC4=CC(=O)CC[C@]4(C)[C@H]3[C@@H](O)C[C@@]21C",
    "Thymus wt. (mg)": 469
  }
]

---

Overview of recorded Body wt. gain for various compounds
tested on: granulation tissue formation caused by implantation of cotton pellets; assay: Granuloma formation test (local cotton pellet granuloma assay); type: in vivo, rat; settings: Table IV, 1000 μg/pellet

[
  {
    "compound": "CC(C)OC(=O)O[C@]1(C(=O)OCCl)CC[C@H]2[C@@H]3CCC4=CC(=O)C=C[C@]4(C)[C@H]3[C@@H](O)C[C@@]21C",
    "experimentalTarget": "granulation tissue formation caused by implantation of cotton pellets",
    "scaleUnit": "g",
    "Body wt. gain": 29.4
  },
  {
    "compound": "CCCC(=O)O[C@]1(C(=O)CO)CC[C@H]2[C@@H]3CCC4=CC(=O)CC[C@]4(C)[C@H]3[C@@H](O)C[C@@]21C [Hydrocortisone 17-butyrate, reference compound]",
    "experimentalTarget": "granulation tissue formation caused by implantation of cotton pellets",
    "scaleUnit": "g",
    "Body wt. gain": 26.2
  },
  {
    "compound": "CCCCC(=O)O[C@]1(C(=O)CO)[C@@H](C)C[C@H]2[C@@H]3CCC4=CC(=O)C=C[C@]4(C)[C@@]3(F)[C@@H](O)C[C@@]21C [Betamethasone 17-valerate, reference compound]",
    "experimentalTarget": "granulation tissue formation caused by implantation of cotton pellets",
    "scaleUnit": "g",
    "Body wt. gain": 5.3
  },
  {
    "compound": "CC(C)OC(=O)O[C@]1(C(=O)OCCl)CC[C@H]2[C@@H]3CCC4=CC(=O)CC[C@]4(C)[C@H]3[C@@H](O)C[C@@]21C",
    "experimentalTarget": "granulation tissue formation caused by implantation of cotton pellets",
    "scaleUnit": "g",
    "Body wt. gain": 34.0
  }
]

Measured values drawn from patent US6610675B1 for this set.
